assay: Cmax in CD-1 mouse at 1 mg/kg, po measured for 0.5 to 24 hrs by LC-MS/MS analysis; assay type: ADME, organism-based; set-up: dose 1 mg/kg, time 0.5-24 hrs, route po; conditions: in vivo
Observed Property: Cmax (ng/mL)
Give bare numbers, in ng/mL.

Inquiry: For COc1cc(NC(C(=O)c2c[nH]c3cc(OC)c(C)cc23)c2ccc(Cl)cc2OC)cc(OCCO)c1 (single isomer, unassigned; (+)) , what is its reported Cmax?
Reply text: 83

---

assay: AUC last in CD-1 mouse at 30 mg/kg, po measured for 0.5 to 24 hrs by LC-MS/MS analysis; assay type: ADME, organism-based; parameters: time upper 24 hrs, time lower 0.5 hrs, dose 30 mg/kg, route po; conditions: in vivo
Observed Property: AUC(0-t) (µg·h/mL)
Answers are plain numbers, in µg·h/mL.

Inquiry: For COc1cc(NC(C(=O)c2c[nH]c3cc(F)ccc23)c2ccc(Cl)cc2OC)cc(OCCO)c1 (single isomer, unassigned; (+)) , what is its reported AUC(0-t)?
Reply text: 29.5
